# METHOD: qHTS assay to identify small molecule antagonists of the androgen receptor (AR) signaling pathway - cell viability counter screen (AID 743033; note: nearly all actives have a fitted effect of over 45% in size)
# EXPERIMENTAL_CONDITIONS: AR-bla HEK293 viability, CellTiter-Glo luminescence, 16 h; series mostly up to 58.5 µM
Inconclusive results are not listed. Activity calls are given as the source filed them. Calls come from the whole dose curve; as a rule, active = well fitted cell-killing curve with a large enough effect in the repeat runs; inconclusive = weak or mixed curves; inactive = no such curve, though single readings can be large or run the other way.
The reply should be one of these categories: yes (1) = active, no (0) = inactive

Previously resolved entries follow.
CCN(CC)c1ccc(N=Nc2ccc(S(=O)(=O)N(C)C)cc2)c(S(=O)(=O)NCC[n+]2ccccc2)c1    no (0)
O=C(O)C1CCCN1 (stereo not drawn)    no (0)
CC1(C)S[C@@H]2[C@H](NC(=O)[C@H](NC(=O)N3CCN(S(C)(=O)=O)C3=O)c3ccccc3)C(=O)N2[C@H]1C(=O)O    no (0)
O=C(O)c1ccc(OCCn2ccnc2)cc1    no (0)

Tell me the assay call for CCCCCCOc1ccc(C(=N)N(CCCC)CCCC)c2ccccc12 please.
yes (1)

What is the recorded call for this compound in the test? COc1cc2c(cc1OC)CC(=O)N(CCCN(C)C[C@H]1Cc3cc(OC)c(OC)cc31)CC2
no (0)

What was the test verdict on CCCCC(C)(O)C/C=C/[C@H]1[C@H](O)CC(=O)[C@@H]1CCCCCCC(=O)OC (stereo partly drawn) ?
no (0)

Assay result, entry CC(C)CN(C[C@@H](O)[C@H](Cc1ccccc1)NC(=O)O[C@H]1CO[C@H]2OCC[C@H]21)S(=O)(=O)c1ccc(N)cc1 — outcome?
no (0)

So what was the verdict on C[Se]CCC(N)C(=O)O (stereo not drawn) in this test?
no (0)

Outcome? COc1ccccc1N1CCN(CCCC(=O)c2ccc(F)cc2)CC1
no (0)

* * *

# METHOD: qHTS assay to test for compound auto fluorescence at 590 nm (red) in HepG2 cells (AID 720674)
# EXPERIMENTAL_CONDITIONS: HepG2 autofluorescence, red 540/590 nm, 1 h; series mostly up to 46 µM
Active and inactive are the calls of the source. The call rests on the fitted dose curve; in most records, active means well fitted curve in the direction sought with a large enough effect in the repeat runs; inconclusive means weak or mixed curves; inactive means flat fitted curve, though single readings scatter.
ENDPOINT_NAME: outcome

// known answers, use as guide
NS(=O)(=O)c1cc2c(cc1Cl)NC(Cc1ccccc1)NS2(=O)=O (stereo not drawn)    inactive
COC(=O)C1=C(C)NC(C)=C(C(=O)O[C@H]2CCN(Cc3ccccc3)C2)[C@H]1c1cccc([N+](=O)[O-])c1    inactive
CC1(C)S[C@@H]2[C@H](NC(=O)[C@H](N)c3ccccc3)C(=O)N2[C@H]1C(=O)OCOC(=O)[C@@H]1N2C(=O)C[C@H]2S(=O)(=O)C1(C)C    inactive
CC[C@H](CC[C@@H](C)[C@H]1CC[C@H]2[C@@H]3CC=C4C[C@@H](O)CC[C@]4(C)[C@H]3CC[C@]12C)C(C)C    inactive
CCCCCCCCCCCCCCCC(=O)OC[C@@H](NC(=O)C(Cl)Cl)[C@H](O)c1ccc([N+](=O)[O-])cc1    inactive

Consider the following items and state reported outcome for each.
1. CCOC(=O)C1=C[C@@H](OC(CC)CC)[C@H](NC(C)=O)[C@@H](N)C1
2. COc1ccc2c(c1)N(C[C@H](C)CN(C)C)c1ccccc1S2
3. CC(CN(C)C)CN1c2ccccc2S(=O)(=O)c2ccccc21 (stereo not drawn)

inactive
inactive
inactive
